B1: INTS4 (parent)
chain: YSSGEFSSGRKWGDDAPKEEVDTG

variants of: B1; test: protein stability index of a GFP-peptide fusion (GPS, HEK-293T) (PSI 1-6); higher = more stable; settings: c terminus: a fixed tail appended;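 also: lentivirally expressed fusions sorted by FACS into six bins by GFP to DsRed ratio, PSI derived from sequencing read proportions per bin multiplied by bin number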
Assign class by protein stability index: not lower than 2 means yes (1); lower than 2 means no (0).

Query :: Can "D22P" be said to have protein stability index at or above 2?
Result :: yes (1)

Query :: Can "G13W" be said to have protein stability index at or above 2?
Result :: yes (1)

Query :: Can "T23P" be said to have protein stability index at or above 2?
Result :: no (0)

Query :: Can "W12L" be said to have protein stability index at or above 2?
Result :: yes (1)

Query :: Can "Y1W" be said to have protein stability index at or above 2?
Result :: yes (1)

Query :: Can "G13P" be said to have protein stability index at or above 2?
Result :: yes (1)

Query :: Can "S8V" be said to have protein stability index at or above 2?
Result :: no (0)

Query :: Can "R10Y" be said to have protein stability index at or above 2?
Result :: yes (1)

Query :: Can "Y1G" be said to have protein stability index at or above 2?
Result :: yes (1)

Query :: Can "E5R" be said to have protein stability index at or above 2?
Result :: yes (1)

Query :: Can "A16N" be said to have protein stability index at or above 2?
Result :: yes (1)
